Target: human TLR9 (Homo sapiens, UniProt Q9NR96)
Construct: host or cells: HEK-Blue cells
Sequence (Q9NR96 26-1032): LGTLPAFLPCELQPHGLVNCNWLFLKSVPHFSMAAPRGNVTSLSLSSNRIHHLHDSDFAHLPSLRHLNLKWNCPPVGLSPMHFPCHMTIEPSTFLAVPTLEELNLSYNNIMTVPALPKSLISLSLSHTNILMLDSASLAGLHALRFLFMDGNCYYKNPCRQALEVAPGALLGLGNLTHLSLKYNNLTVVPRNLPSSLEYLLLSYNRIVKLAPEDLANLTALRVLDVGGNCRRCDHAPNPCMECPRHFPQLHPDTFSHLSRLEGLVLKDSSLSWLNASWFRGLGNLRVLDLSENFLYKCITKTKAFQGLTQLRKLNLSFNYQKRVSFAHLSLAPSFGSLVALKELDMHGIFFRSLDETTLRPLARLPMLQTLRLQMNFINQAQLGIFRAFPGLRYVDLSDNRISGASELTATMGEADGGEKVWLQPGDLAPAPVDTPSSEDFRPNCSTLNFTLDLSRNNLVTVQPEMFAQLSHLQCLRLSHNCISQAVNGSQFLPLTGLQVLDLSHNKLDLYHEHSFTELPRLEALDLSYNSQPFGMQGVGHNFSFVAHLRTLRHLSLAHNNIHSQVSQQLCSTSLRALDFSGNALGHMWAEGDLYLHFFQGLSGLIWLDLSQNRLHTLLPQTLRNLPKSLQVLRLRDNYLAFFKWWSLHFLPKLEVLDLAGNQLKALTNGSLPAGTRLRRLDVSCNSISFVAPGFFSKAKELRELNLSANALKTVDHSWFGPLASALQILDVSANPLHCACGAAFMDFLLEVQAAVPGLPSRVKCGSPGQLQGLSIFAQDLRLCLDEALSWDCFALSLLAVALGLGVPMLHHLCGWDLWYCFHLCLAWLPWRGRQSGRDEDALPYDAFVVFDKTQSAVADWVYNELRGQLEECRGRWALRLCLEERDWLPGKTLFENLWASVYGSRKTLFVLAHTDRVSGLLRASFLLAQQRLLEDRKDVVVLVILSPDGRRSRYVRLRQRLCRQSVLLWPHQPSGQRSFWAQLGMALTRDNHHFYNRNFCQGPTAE
Assay: TLR9 inhibition reporter assay (HEK-Blue cells, SEAP reporter, ODN2006 stimulation)
Assay type: cell-based
Conditions: HEK-Blue cells overexpressing human TLR9, SEAP reporter, ODN2006 5 nM
pIC50: −log10 of the molar value.
Test Readout: pIC50

Previously resolved entries follow.
* Cc1cc(-c2[nH]nc(C(=O)N[C@H]3CC[C@@H](NC(C)C(C)(C)C)CC3)c2C(C)C)cn2ncnc12 (stereo partly shown) | 5.55
* Cc1cc(-c2[nH]nc(C3CCN(C(=O)CN(C)C)CC3)c2C(C)C)cn2ncnc12 | 5.38
* Cc1cc(-c2[nH]nc(C3CCC(N(C)C(=O)CN(C)C)CC3)c2C(C)C)cn2ncnc12 (stereo not shown) [Example 296] | 4.47
* Cc1cc(-c2[nH]nc(C3CCC(N(C)C(=O)C4CNC4)CC3)c2C(C)C)cn2ncnc12 (stereo not shown) | 4.91
* Cc1cc(-c2[nH]nc(C3CCC(N(C)CC(=O)N(C)C)CC3)c2C(C)C)cn2ncnc12 (single isomer, unassigned) [compound 299] | 4.89
* COc1cc(-c2[nH]nc(-c3cnc(C4CCN(CC(=O)N(C)C)CC4)cn3)c2C(C)C)cn2ncnc12 | 4.87
* Cc1cc(-c2[nH]nc(C(=O)N[C@H]3CC[C@H](N(CCC(C)C)CCC(C)C)CC3)c2C(C)C)cn2ncnc12 | 5.24
* Cc1cc(-c2[nH]nc(C(=O)NCC3CN(C)CCO3)c2C(C)C)cn2ncnc12 (stereo not shown) [Example 134] | 4.79

P = COc1cc(-c2[nH]nc(-c3ccc(C4CN(C(C)C)C4)cc3)c2C(C)C)cn2ncnc12
Q = Cc1noc(C)c1CN[C@H]1CC[C@@H](NC(=O)c2n[nH]c(-c3cc(C)c4ncnn4c3)c2C(C)C)CC1
Inquiry: Hey, which is lower on measured pIC50, P or Q ? The response must carry the label of the picked entry.
Reply text: Q

----------
Molecular target: human TLR7 (Homo sapiens, UniProt Q9NYK1)
Assay: TLR7 inhibition reporter assay (HEK-Blue cells, SEAP reporter, gardiquimod stimulation)
Conditions: HEK-Blue cells overexpressing human TLR7, SEAP reporter, gardiquimod 7.5 μM
pIC50: −log10 of the molar value.
Test Readout: pIC50

Some compounds with known pIC50 results, for comparison:
* CNC(=O)CN1CCC(NC(=O)c2n[nH]c(-c3cc(OC)c4ncnn4c3)c2CC(F)(F)F)CC1 | 8.18
* Cc1cc(-c2[nH]nc(C(=O)N3CC4CNCC4C3)c2C(C)C)cn2ncnc12 (stereo not shown) | 8.23
* COc1cc(-c2[nH]nc(-c3cnc(C4CCN(C5CCOCC5)CC4)cn3)c2C(C)C)cn2ncnc12 | 7.94

I = CCC(CC)N1CCC(c2cnc(-c3n[nH]c(-c4cc(OC)c5ncnn5c4)c3C(C)C)cn2)CC1
II = Cc1cc(-c2[nH]nc(C(=O)N[C@H]3CC[C@@H](N(CCC(C)C)CCC(C)C)CC3)c2C(C)C)cn2ncnc12
III = Cc1cc(-c2[nH]nc(C(=O)NC3CCN(CC4CCOCC4)CC3)c2CC(F)(F)F)cn2ncnc12
Inquiry: Put the items in order so that reported pIC50 rises from first to last. Provide the ranking by listing each label in its place in the requested order.
Reply text: I, II, III
(I: 7.99, II: 8.40, III: 8.82)

----------
Target: human TLR7 (Homo sapiens, UniProt Q9NYK1)
Sequence (Q9NYK1 27-1049): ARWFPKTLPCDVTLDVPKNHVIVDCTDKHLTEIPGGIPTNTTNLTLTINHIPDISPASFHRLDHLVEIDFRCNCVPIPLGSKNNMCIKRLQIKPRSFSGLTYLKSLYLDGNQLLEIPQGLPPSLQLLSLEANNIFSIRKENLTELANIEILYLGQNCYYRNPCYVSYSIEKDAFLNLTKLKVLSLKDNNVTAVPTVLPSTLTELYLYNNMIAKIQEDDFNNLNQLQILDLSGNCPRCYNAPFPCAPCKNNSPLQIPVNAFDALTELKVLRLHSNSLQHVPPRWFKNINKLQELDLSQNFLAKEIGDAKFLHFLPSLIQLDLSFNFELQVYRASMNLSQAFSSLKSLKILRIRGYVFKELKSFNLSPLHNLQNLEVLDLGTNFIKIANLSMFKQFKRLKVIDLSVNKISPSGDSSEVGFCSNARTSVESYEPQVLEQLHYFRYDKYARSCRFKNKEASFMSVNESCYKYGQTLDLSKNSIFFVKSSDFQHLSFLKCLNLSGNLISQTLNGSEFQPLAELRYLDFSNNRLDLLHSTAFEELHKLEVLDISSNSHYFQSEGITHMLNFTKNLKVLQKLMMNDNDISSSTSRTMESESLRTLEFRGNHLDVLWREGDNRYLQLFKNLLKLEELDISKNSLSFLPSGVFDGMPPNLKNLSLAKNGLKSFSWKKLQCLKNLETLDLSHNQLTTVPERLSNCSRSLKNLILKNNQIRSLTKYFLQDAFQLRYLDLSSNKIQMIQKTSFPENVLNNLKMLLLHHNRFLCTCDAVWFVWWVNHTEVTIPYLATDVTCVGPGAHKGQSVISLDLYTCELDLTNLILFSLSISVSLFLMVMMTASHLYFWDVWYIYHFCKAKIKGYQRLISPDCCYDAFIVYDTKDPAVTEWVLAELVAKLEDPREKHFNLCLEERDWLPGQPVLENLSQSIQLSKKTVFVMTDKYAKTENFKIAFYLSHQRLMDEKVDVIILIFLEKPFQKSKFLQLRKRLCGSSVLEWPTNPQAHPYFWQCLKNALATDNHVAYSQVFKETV
Assay: TLR7 inhibition reporter assay (HEK-Blue cells, SEAP reporter, gardiquimod stimulation)
Conditions: HEK-Blue cells overexpressing human TLR7, SEAP reporter, gardiquimod 7.5 μM
pIC50: −log10 of the molar value.
Test Readout: pIC50

# count of solved cases: 5
* COc1cc(-c2[nH]nc(-c3cnc(C4CCN(CCF)CC4)cn3)c2C(C)C)cn2ncnc12 [Example 398] | 6.86
* CNC(=O)CN1CCC(c2n[nH]c(-c3cc(C)c4ncnn4c3)c2C(C)C)CC1 [Example 211] | 9.10
* CC(C)c1c(C(=O)NC2CCN(C(C)C)CC2)n[nH]c1-c1cn(C)c2ncccc12 [Example 42] | 8.52
* Cc1cc(-c2[nH]nc(C3CCC(N(C)CC(=O)N(C)C)CC3)c2C(C)C)cn2ncnc12 (centres unmarked) [Example 298] | 8.81
* Cc1cc(-c2[nH]nc(C(=O)N[C@H]3CC[C@@H](N)CC3)c2C(C)C)cn2ncnc12 [Example 63] | 7.61

P = Cc1cc(-c2[nH]nc(-c3nc4c(s3)CN(C)CC4)c2C(C)C)cn2ncnc12 [Example 256]
Q = Cc1cc(-c2[nH]nc(C(=O)N[C@H]3CC[C@H](NC(C)CC(C)(C)C)CC3)c2C(C)C)cn2ncnc12 (some centres unmarked) [Example 120]
R = Cc1cc(-c2[nH]nc(-c3cc4n(n3)CCNC4)c2C(C)C)cn2ncnc12 [Example 217]
Inquiry: Ranking field: pIC50; order: falling. // format: requested-order list of labels
Reply text: R, Q, P
(R: 8.62, Q: 8.38, P: 7.46)

----------
Target: human TLR7 (Homo sapiens, UniProt Q9NYK1)
Construct: host or cells: HEK-Blue cells
Test: TLR7 inhibition reporter assay (HEK-Blue cells, SEAP reporter, gardiquimod stimulation)
Assay type: cell-based
Conditions: HEK-Blue cells overexpressing human TLR7, SEAP reporter, gardiquimod 7.5 μM
pIC50: −log10 of the molar value.
Test Readout: pIC50

* Cc1cc(-c2[nH]nc(C(=O)NCC3CN(CC(C)(C)C)CCO3)c2C(C)C)cn2ncnc12 (stereo not shown) [Example 145] | 7.22
* Cc1cc(-c2[nH]nc(C(=O)NC3CCN(C)CC3)c2C(C)C)cn2ncnc12 | 8.61

1 = Cc1cc(-c2[nH]nc(C3CCN(CC(=O)N(C)C)CC3)c2C(C)C)cn2ncnc12
2 = Cc1cc(-c2[nH]nc(C(=O)N3CC[C@H](N(C)C)C3)c2C(C)C)cn2ncnc12
Inquiry: Hey, between 1 and 2 which has a smaller measured pIC50? Give the label of your selection.
Reply text: 2
(2: 8.91, 1: 9.21)

----------
Biological target: human TLR7 (Homo sapiens, UniProt Q9NYK1)
Test: TLR7 inhibition reporter assay (HEK-Blue cells, SEAP reporter, gardiquimod stimulation)
Settings: HEK-Blue cells overexpressing human TLR7, SEAP reporter, gardiquimod 7.5 μM
pIC50: −log10 of the molar value.
Test Readout: pIC50

Recorded results for 2 molecules are shown here.
* Cc1cc(-c2[nH]nc(C(=O)NCC3CN(C)CCO3)c2C(C)C)cn2ncnc12 (stereo not shown) [Example 134] | 8.91
* COc1cc(-c2[nH]nc(C(=O)NC3CCN(C)CC3)c2C(C)C)cn2ncnc12 | 8.42

P = Cc1cc(-c2[nH]nc(-c3nc4c(s3)CCNC4)c2C(C)C)cn2ncnc12
Q = Cc1cc(-c2[nH]nc(C(=O)NC3CCN(CCC(C)C)CC3)c2C(C)C)cn2ncnc12
Inquiry: Which item exceeds the other in pIC50, P or Q ? Respond with the label that goes with your answer.
Reply text: Q
